- Assay remarks: Single dose PK, phase 1, healthy Japanese men
- Assay type: in vivo, human
- Applied conditions: male, human, plasma, sc, 0.5 mg, single 2-hour SC INF 0.5 mg, mean
Where a SMILES comes first, the peptide text is derived from it. [ ]: non-standard residue; d: D form. Arg(Me) = CNC(=N)NCCC[C@H](N)C(=O)O; Hyp = O=C(O)[C@@H]1C[C@@H](O)CN1; azaGly = NNC(=O)O
Experimental readout: CL/F (mL/min)
Numbers only, in mL/min.

Answer with the recorded CL/F of CC(=O)O.CNC(=N)NCCC[C@H](NC(=O)[C@H](CC(C)C)NC(=O)NNC(=O)[C@H](Cc1ccccc1)NC(=O)[C@@H](NC(=O)[C@H](CC(N)=O)NC(=O)[C@@H]1C[C@@H](O)CN1C(=O)[C@@H](Cc1ccc(O)cc1)NC(C)=O)[C@@H](C)O)C(=O)N[C@@H](Cc1c[nH]c2ccccc12)C(N)=O [API-MA] (Ac-[dY][Hyp]NTF[azaGly]L[Arg(Me)]W-NH2) only.
243
